Kindly state Intracellular infection assays: BV2 / M. marinum for each of the entries shown.
System: M. marinum in BV2 microglial cells
Format: cell-based, Mycobacterium marinum

Find the measured Intracellular infection assays: BV2 / M. marinum: item O=C(C=Cc1ccccc1)N1CCN(Cc2ccc3c(c2)OCO3)CC1 , target or system M. marinum in BV2 microglial cells. 1.10

Find the measured Intracellular infection assays: BV2 / M. marinum: item CC(C)(C)C(=O)CC1(O)Oc2ccccc2N=C1C=C(O)C(C)(C)C (centres unmarked) [GSK262906A] , target or system M. marinum in BV2 microglial cells. 1.68

Find the measured Intracellular infection assays: BV2 / M. marinum: item O=C(CCCSc1ccccc1)NNC(=O)c1cccs1 [GSK2157753A] , target or system M. marinum in BV2 microglial cells. 1.67

Find the measured Intracellular infection assays: BV2 / M. marinum: item O=C(N[C@@H](Cc1ccccc1)C(=O)Nc1ccccc1N1CCOCC1)c1cccs1 [GSK1729177A] , target or system M. marinum in BV2 microglial cells. 1.02

Find the measured Intracellular infection assays: BV2 / M. marinum: item COc1ccc(CC(=O)Nc2c(-c3cccs3)nc3cc(C)ccn23)cc1 [GSK1857145A] , target or system M. marinum in BV2 microglial cells. 1.12

====

Test system: M. marinum in BV2 microglial cells
Assay type: cell-based, Mycobacterium marinum
measurement-label: pIC50
pIC50 is a log-scale quantity: -log10 of the concentration expressed in molar.

Name the recorded pIC50 for CN1CCN(c2cc(-c3ccncc3)nc(-c3ccccc3)n2)CC1 [GSK275984A] . 5.29

Name the recorded pIC50 for O=C(NCc1ccc2c(c1)OCO2)c1c(C(F)(F)F)nc2ccccn12 [GSK1829671A] . 5.13

Name the recorded pIC50 for Cc1nc2ccccn2c1C(=O)NCc1ccccc1 [GSK957094A] . 5.12

====

Test system: D. discoideum GFP-ABD
Conditions: 10 µM
measurement-label: D. discoideum GFP-ABD normalised growth, control = 1.00, mean

Name the recorded D. discoideum GFP-ABD normalised growth, control = 1.00, mean for O=C(NC(Cc1ccccc1)C(=O)Nc1ccccc1N1CCOCC1)c1cccs1 (stereo not drawn) [GSK1055950A] . 1,07

Name the recorded D. discoideum GFP-ABD normalised growth, control = 1.00, mean for Cc1ccc2nc(C(F)(F)F)c(C(=O)NCc3ccc(C)o3)n2c1 [GSK1829728A] . 1,01

Name the recorded D. discoideum GFP-ABD normalised growth, control = 1.00, mean for Cc1ccc2nc(C(F)(F)F)c(C(=O)NCc3ccc4c(c3)OCO4)n2c1 [GSK1829732A] . 1,00

Name the recorded D. discoideum GFP-ABD normalised growth, control = 1.00, mean for CNc1nc(SCC(=O)N(C)Cc2ccc(Cl)s2)nc2ccccc12 [GSK1925843A] . 1,10

Name the recorded D. discoideum GFP-ABD normalised growth, control = 1.00, mean for Cc1ccc2nc(C)c(C(=O)NCc3ccco3)n2c1 [GSK1829819A] . 1,08

Name the recorded D. discoideum GFP-ABD normalised growth, control = 1.00, mean for O=C(NCc1ccc2c(c1)OCO2)c1c(C(F)(F)F)nc2ccccn12 [GSK1829671A] . 1,21

====

System: D. discoideum GFP-ABD
Conditions: 10 µM
Entries whose D. discoideum GFP-ABD normalised growth, control=1.00, mean is below 0.9 take Satisfied; entries at or above 0.9 take Not satisfied.

Given Cc1ccccc1CN1CCC(O)(c2ccc(Cl)c(C(F)(F)F)c2)CC1 [GSK1985270A] , is recorded D. discoideum GFP-ABD normalised growth, control=1.00, mean strictly lower than 0.9? Not satisfied

Given Cc1nc2ccccn2c1C(=O)NCc1ccccc1 [GSK957094A] , is recorded D. discoideum GFP-ABD normalised growth, control=1.00, mean strictly lower than 0.9? Not satisfied

Given Cl.O=C(c1ccco1)N(CCCn1ccnc1)c1nc2c(Cl)cccc2s1 [GSK1788487A] , is recorded D. discoideum GFP-ABD normalised growth, control=1.00, mean strictly lower than 0.9? Satisfied

Given CCCCS(=O)(=O)Nc1ccc2cnn(C)c2c1 [GSK3011724A] , is recorded D. discoideum GFP-ABD normalised growth, control=1.00, mean strictly lower than 0.9? Not satisfied

====

Tested on: D. discoideum GFP-ABD
Settings: 10 µM
measurement-label: D. discoideum GFP-ABD normalised growth, control=1.00, mean
Respond with the number and no other words.

Find the measured D. discoideum GFP-ABD normalised growth, control=1.00, mean: item Cc1ccc2nc(C)c(C(=O)NCc3ccco3)n2c1 [GSK1829819A] , target or system D. discoideum GFP-ABD. 1.08

Find the measured D. discoideum GFP-ABD normalised growth, control=1.00, mean: item Br.CC(C)(C)c1ccccc1OCCCON1C(=N)N=C(N)NC1(C)C [BRL-7940SA] , target or system D. discoideum GFP-ABD. 0.67

Find the measured D. discoideum GFP-ABD normalised growth, control=1.00, mean: item CSc1ccc(-c2nnc(NC(=O)c3ccc(Cl)s3)o2)cc1 [GSK1650514A] , target or system D. discoideum GFP-ABD. 1.16

====

Test system: D. discoideum GFP-ABD
Kindly state Growth inhibition / Cytotoxicity assays: D. discoideum GFP-ABD for each of the entries shown.

Name the recorded Growth inhibition / Cytotoxicity assays: D. discoideum GFP-ABD for CCCCc1ccc(C(=O)Nc2nccc3ccccc23)nc1 [SB-746177] . 0.92

Name the recorded Growth inhibition / Cytotoxicity assays: D. discoideum GFP-ABD for CC(C)(C)C(=O)CC1(O)Oc2ccccc2N=C1C=C(O)C(C)(C)C (stereo not drawn) [GSK262906A] . 0.89

Name the recorded Growth inhibition / Cytotoxicity assays: D. discoideum GFP-ABD for Cc1cc(NCCc2ccccc2)nc(/N=C(\N)Nc2ccc(Cl)cc2)n1 [CCI7967] . 0.89

====

Tested on: M. marinum in A. castellanii
Type: cell-based, Mycobacterium marinum
Settings: 10 µM
measurement-label: Hits A. castellanii/M. marinum assay True/False

Find the measured Hits A. castellanii/M. marinum assay True/False: item Cc1ccc2nc(C)c(C(=O)NCc3ccco3)n2c1 [GSK1829819A] , target or system M. marinum in A. castellanii. FALSE

Find the measured Hits A. castellanii/M. marinum assay True/False: item Cc1ccccc1CN1CCC(O)(c2ccc(Cl)c(C(F)(F)F)c2)CC1 [GSK1985270A] , target or system M. marinum in A. castellanii. TRUE

Find the measured Hits A. castellanii/M. marinum assay True/False: item CC(C)OC(=O)COc1ccc(-c2cnc(N(C)CCc3ccncc3)nc2)cc1 [GSK831784A] , target or system M. marinum in A. castellanii. TRUE

====

Kindly state IC50 for each of the entries shown.
Test system: M. marinum in BV2 microglial cells
Assay type: cell-based, Mycobacterium marinum
Reply numerically in µM, unit not repeated.

Name the recorded IC50 for Cc1ccc2nc(C(F)(F)F)c(C(=O)NCc3ccc(C)o3)n2c1 [GSK1829728A] . 4.03

Name the recorded IC50 for Clc1ccc(Nc2nc(-c3ccccn3)cs2)nc1 [GSK445886A] . 1.75

Name the recorded IC50 for Cc1ccc2nc(C(F)(F)F)c(C(=O)NCc3ccc4c(c3)OCO4)n2c1 [GSK1829732A] . 3.52

Name the recorded IC50 for CCc1ccc(S(=O)(=O)Nc2cc(CN3CCN(CCC(C)C)CC3)ccc2C)cc1.O=C(O)C(F)(F)F.O=C(O)C(F)(F)F . 5.94

Name the recorded IC50 for Cc1ccc2nc(C(F)(F)F)c(C(=O)NCc3cc(Cl)cc(Cl)c3)n2c1 [GSK1829736A] . 2.21

Name the recorded IC50 for Nc1ccccc1Nc1ccc2c(c1)OCO2 . 11.4

Name the recorded IC50 for COc1ccc2nc(C)cc(OCC(=O)Nc3cc(C)cc(C)c3)c2c1 [GSK749336A] . 7.32

Name the recorded IC50 for Cl.O=C(c1ccco1)N(CCCn1ccnc1)c1nc2c(Cl)cccc2s1 [GSK1788487A] . 4.96

Name the recorded IC50 for CC(C)OC(=O)COc1ccc(-c2cnc(N(C)CCc3ccncc3)nc2)cc1 [GSK831784A] . 15

Name the recorded IC50 for O=C(c1cc2c(s1)CCC2)N1CCN(Cc2ccc3c(c2)OCO3)CC1 [GSK1731114A] . 9.43

Name the recorded IC50 for COc1ccc(Nc2ccccc2NC(=O)c2ccc(O)nc2)cc1 [GSK1051703A] . 6.47

Name the recorded IC50 for COc1cc(C(F)(F)F)nc2ccc(C)c(N)c12 [GSK345724A] . 8.6

Name the recorded IC50 for CNc1nc(SCC(=O)N(C)Cc2ccc(Cl)s2)nc2ccccc12 [GSK1925843A] . 3.83

Name the recorded IC50 for Cc1cc(OCC(=O)Nc2ccccc2)c2cc(Br)ccc2n1 [GW857165X] . 3.52

Name the recorded IC50 for FC(F)(F)c1nnc2ccc(Cl)nn12 [GSK352635A] . 7.58

Name the recorded IC50 for Br.CC(C)(C)c1ccccc1OCCCON1C(=N)N=C(N)NC1(C)C [BRL-7940SA] . 3.14

Name the recorded IC50 for O=C(NC(Cc1ccccc1)C(=O)Nc1ccccc1N1CCOCC1)c1cccs1 (centres unmarked) [GSK1055950A] . 2.84

Name the recorded IC50 for CCN(Cc1ccc2c(c1)OCO2)C(=O)CSc1nc(NC)c2ccccc2n1 [GSK1859936A] . 4.14

Name the recorded IC50 for Br.Cc1ccccc1OCCCON1C(=N)N=C(N)NC1(C)C [BRL-8903SA] . 4.27

Name the recorded IC50 for Cc1cccc(Cn2ccc(NC(=O)c3ccc4c(c3)OCO4)n2)c1 [GSK798463A] . 5.01

Name the recorded IC50 for Cc1ccc2nc(C)c(C(=O)NCC(C)C)n2c1 [GSK1829816A] . 4.09

Name the recorded IC50 for CN1CCN(c2ccc(C(F)(F)F)cc2NC(=O)c2ccccn2)CC1 [GSK1750922A] . 5.07

Name the recorded IC50 for CSc1ccccc1C(=O)Nc1nc(-c2ccccn2)cs1 [GSK921190A] . 4.08

Name the recorded IC50 for Br.CC1(C)NC(N)=NC(=N)N1OCCCOc1ccc(Cl)cc1Cl [BRL-51091AM] . 1.8

Name the recorded IC50 for C=CCNc1nc(SC)nc2ccccc12 [GSK353071A] . 4.77

Name the recorded IC50 for COc1ccc(CCNC(=O)c2c(C)nc3ccccn23)cc1 [GSK762874A] . 3.64
